Entries and their growth at 10 µM
System: DU-145
Assay: Growth inhibition of human DU145 cells assessed as cell growth at 10 uM by sulforhodamine B assay
Assay type: functional
Conditions: read-out: Activity
Endpoint Label: growth at 10 µM

1. COc1cc(/C=C2\C[C@]3(C)[C@H]4CC=C5[C@@H]6CC(C)(C)C[C@@H](O)[C@]6(C(=O)O)CC[C@@]5(C)[C@]4(C)CC[C@H]3C(C)(C)C2=O)ccc1O ... 107%
2. CC1(C)C[C@@H](O)[C@]2(C(=O)O)CC[C@]3(C)C(=CC[C@@H]4[C@@]5(C)C/C(=C\C=C\c6ccccc6)C(=O)C(C)(C)[C@@H]5CC[C@]43C)[C@@H]2C1 ... 71.2%
3. C/C=C(/C)C(=O)O[C@@H]1CC(C)(C)C[C@H]2C3=CC[C@@H]4[C@@]5(C)CC[C@H](O)C(C)(C)[C@@H]5CC[C@@]4(C)[C@]3(C)CC[C@@]12C(=O)O ... 74.9%
4. CC(C)=CC(=O)O[C@@H]1CC(C)(C)C[C@H]2C3=CC[C@@H]4[C@@]5(C)CC[C@H](O)C(C)(C)[C@@H]5CC[C@@]4(C)[C@]3(C)CC[C@@]12C(=O)O ... 86.6%
5. C/C=C(/C)C(=O)O[C@@H]1CC(C)(C)C[C@H]2C3=CC[C@@H]4[C@@]5(C)CCC(=O)C(C)(C)[C@@H]5CC[C@@]4(C)[C@]3(C)CC[C@@]12C(=O)O ... 82.6%
